# key: entry, value: EC50
- Target: UniProt P21453
- Experiment: S1P1 internalization assay in S1P1-U2OS cells (S1P1-EGFP), cell imaging
- Type: cell-based
- Design: host or cells: U2OS (human bone osteosarcoma epithelial cells), CMV promoter, geneticin selection
- Condition Details: 1 hour incubation
- Sequence (P21453 whole entry): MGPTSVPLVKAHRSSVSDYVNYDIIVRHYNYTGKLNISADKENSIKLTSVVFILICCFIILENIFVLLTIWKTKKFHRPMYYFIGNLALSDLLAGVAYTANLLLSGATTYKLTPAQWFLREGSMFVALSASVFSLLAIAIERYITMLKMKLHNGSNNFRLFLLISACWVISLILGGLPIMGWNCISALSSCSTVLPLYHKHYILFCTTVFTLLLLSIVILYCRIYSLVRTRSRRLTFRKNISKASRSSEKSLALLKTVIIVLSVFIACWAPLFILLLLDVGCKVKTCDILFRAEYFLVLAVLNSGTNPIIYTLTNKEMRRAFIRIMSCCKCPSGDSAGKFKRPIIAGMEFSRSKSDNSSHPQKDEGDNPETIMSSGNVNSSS
Counter-ions that a name gives are not always drawn.
Answer format: numeric, nM implied, no suffix.

Example cases with answers are listed next.
[
  {
    "Molecule": "COCc1cc(-c2nc(-c3cc(F)c(F)c(OCCCC(=O)O)c3)no2)ccc1-c1ccccc1C [Example 5]",
    "Measurement": 157
  },
  {
    "Molecule": "COCc1cc(-c2nc(-c3ccc(CN(C)CC(=O)O)cc3C(F)(F)F)no2)ccc1-c1ccccc1C [Example 143]",
    "Measurement": 85.5
  },
  {
    "Molecule": "COCc1cc(-c2nc(-c3ccc(CNCC(=O)O)cc3)no2)ccc1-c1ccccc1F [Example 61, hydrochloride salt]",
    "Measurement": 3.36
  }
]

Task: For CCN(CCC(=O)O)Cc1cccc(-c2noc(-c3ccc(-c4ccccc4F)c(COC)c3)n2)c1 [Example 62, hydrochloride salt] , what is its reported EC50?
Output: 2.91

Task: Can you handle COCc1cc(-c2nc(-c3ccc(CN(C)CC(=O)O)cc3)no2)ccc1-c1cccc(F)c1Cl [Example 122, hydrochloride salt] next?
Output: 5.1

Task: Can you handle COCc1cc(-c2nc(-c3cc(F)cc(CN(C)CC(=O)O)c3)no2)ccc1-c1ccccc1 [Example 76] next?
Output: 5.36

Task: Can you handle Cc1ccccc1-c1ccc(-c2nc(-c3cccc(COCC(=O)O)c3)no2)cc1C(F)(F)F [Example 48] next?
Output: 7.12

Task: Can you handle COCc1cc(-c2nc(-c3cccc(CN(C)CC(=O)O)c3)no2)ccc1-c1ccccc1Cl [Example 11, hydrochloride salt] next?
Output: 10.6

Task: Can you handle COCc1cc(-c2nc(-c3cc(Cl)cc(CN(C)CC(=O)O)c3)no2)ccc1-c1ccccc1C [Example 93, hydrochloride salt] next?
Output: 26.5

Task: Can you handle COCc1cc(-c2nc(-c3cccc(CN(CCO)CCO)c3)no2)ccc1-c1ccccc1C [Example 40] next?
Output: 18.2

Task: Can you handle COCc1cc(-c2nc(-c3ccc(CN(C)CC(=O)O)cc3Cl)no2)ccc1-c1ccccc1C [Example 144] next?
Output: 25.7

Task: Can you handle CC1CCCCN1c1ccc(-c2nc(-c3cccc(COCC(=O)O)c3)no2)cc1C(F)(F)F (centres unmarked) [Example 38, hydrochloride salt] next?
Output: 15.4

Task: Can you handle COCc1cc(-c2nc(-c3cc(F)c(CN(C)CC(=O)O)c(F)c3)no2)ccc1-c1ccccc1C [Example 151, hydrochloride salt] next?
Output: 21.6

Task: Can you handle COCc1cc(-c2nc(-c3ccc(CN(C)CC(=O)O)cc3F)no2)ccc1-c1ccccc1C [Example 146, hydrochloride salt] next?
Output: 33.6

----------
# key: entry, value: EC50
- Target: UniProt P21453
- Experiment: S1P1 internalization assay in S1P1-U2OS cells (S1P1-EGFP), cell imaging
- Assay type: cell-based
- Set-up: host or cells: U2OS (human bone osteosarcoma epithelial cells), CMV promoter, geneticin selection
- Condition Details: 1 hour incubation
Counter-ions that a name gives are not always drawn.
Answer format: numeric, nM implied, no suffix.

[
  {
    "Molecule": "COCc1cc(-c2nc(-c3ccc(CN(C)CC(=O)O)cc3)no2)ccc1-c1ccccc1C [Example 51, hydrochloride salt]",
    "Endpoint Unit": "nM",
    "EC50": 4.92
  },
  {
    "Molecule": "COCc1cc(-c2nc(-c3cccc(CN(C)CC(=O)O)c3)no2)ccc1N1CCCCC1",
    "Endpoint Unit": "nM",
    "EC50": 7.33
  },
  {
    "Molecule": "COCc1cc(-c2nc(-c3ccc(CN(C)CC(=O)O)c(Cl)c3)no2)ccc1-c1ccccc1C",
    "Endpoint Unit": "nM",
    "EC50": 13.3
  },
  {
    "Molecule": "COCc1cc(-c2nc(-c3cccc(CC(=O)N(C)CC(=O)O)c3)no2)ccc1-c1ccccc1C",
    "Endpoint Unit": "nM",
    "EC50": 115
  }
]

Task: Form entry - test system: UniProt P21453; read-out: EC50; molecule: COCc1cc(-c2nc(-c3cccc(CN(CC(=O)O)C(C)C)c3)no2)ccc1-c1ccccc1C [Example 58, hydrochloride salt]
Output: 7.87

----------
- Experiment: Pharmacokinetics in mouse (PK parameters from lymphopenia study)
- Type: in vivo
- Condition Details: female, C57BL/6, plasma, po, 30 mg/kg, 30 mpk, read-out: Cl/F (L/kg/h) (Fz%)
Counter-ions that a name gives are not always drawn.
Outcome Measure: CL/F (L/kg/h)
Answer format: numeric, L/kg/h implied, no suffix.

Task: For COCc1cc(-c2nc(-c3cc(F)cc(CN(C)CC(=O)O)c3)no2)ccc1-c1ccccc1C [Example 20, hydrochloride salt] , what is its reported CL/F?
Output: 0.15

----------
- Target: S1P1 (Homo sapiens)
- Experiment: Receptor binding assay, [33P]sphingosine 1-phosphate competition, S1P1 membranes, WGA SPA beads
- Condition Details: 96 well-plate; read-out: S1P1 binding Ki (M) (96 well-plate)
- Sequence (P21453 whole entry, species assumed): as the sequence (P21453 whole entry) above
Counter-ions that a name gives are not always drawn.
# key: entry, value: Ki
Answer format: numeric, M implied, no suffix.

[
  {
    "Molecule": "COCc1cc(-c2nc(-c3ccc(CN(C)CCC(=O)O)c(F)c3)no2)ccc1-c1ccccc1C [Example 73, hydrochloride salt]",
    "Target": "S1P1 (Homo sapiens)",
    "Measurement": "1.07e-10"
  }
]

Task: For `COCc1cc(-c2nc(-c3cccc(CN(C)CC(=O)O)c3)no2)ccc1-c1ccccc1` , what is its reported Ki?
Output: 1.83e-10

Task: Can you handle COCc1cc(-c2nc(-c3cccc(CN(C)CCC(=O)O)c3)no2)ccc1N1CCCCC1C (centres unmarked) [Example 2, hydrochloride salt] next?
Output: 1.36e-10

Task: Can you handle `COCc1cc(-c2nc(-c3cc(F)cc(CN(C)CC(=O)O)c3)no2)ccc1-c1ccccc1` next?
Output: 1.81e-10

Task: Can you handle COCc1cc(-c2nc(-c3ccc(CNCC(=O)O)c(F)c3)no2)ccc1-c1ccccc1C [Example 83, hydrochloride salt] next?
Output: 7.39e-11

Task: Can you handle COCc1cc(-c2nc(-c3cccc(CN(CCO)CCC(=O)O)c3)no2)ccc1-c1ccccc1C [Example 66, hydrochloride salt] next?
Output: 5.36e-10

Task: Can you handle COCc1cc(-c2nc(-c3ccc(CN(C)CC(=O)O)c(OC)c3)no2)ccc1-c1ccccc1C [Example 79, hydrochloride salt] next?
Output: 2.69e-09

Task: Can you handle COCc1cc(-c2nc(-c3cccc(CN(C)CC(=O)O)c3)no2)ccc1-c1ccc(F)cc1C [Example 36, hydrochloride salt] next?
Output: 5.59e-10

----------
# key: entry, value: Ki
- Target: S1P1 (Homo sapiens)
- Experiment: Receptor binding assay, [33P]sphingosine 1-phosphate competition, S1P1 membranes, WGA SPA beads
- Condition Details: 384 well-plate; read-out: S1P1 binding Ki (M) (384 well-plate)
Where a name gives a salt, the structure may show the parent alone.
Answer format: numeric, M implied, no suffix.

Example cases with answers are listed next.
[
  {
    "Compound": "COC(C)c1cc(-c2nc(-c3ccc(CN(C)CC(=O)O)cc3)no2)ccc1-c1ccccc1C (stereo not drawn) [Example 140, hydrochloride salt]",
    "Outcome Measure": "Ki",
    "Endpoint Unit": "M",
    "Measurement": "9.81e-10"
  },
  {
    "Compound": "COCc1cc(-c2nc(-c3ccc(CCN(C)CC(=O)O)cc3)no2)ccc1-c1ccccc1C",
    "Outcome Measure": "Ki",
    "Endpoint Unit": "M",
    "Measurement": "9.45e-10"
  },
  {
    "Compound": "COCc1cc(-c2nc(-c3ccc(CN(C)CC(=O)O)cc3)no2)ccc1-c1cccc(F)c1C [Example 90, hydrochloride salt]",
    "Outcome Measure": "Ki",
    "Endpoint Unit": "M",
    "Measurement": "8.65e-10"
  }
]

Task: For COCc1cc(-c2nc(-c3cc(F)cc(CN(C)CCC(=O)O)c3)no2)ccc1-c1ccccc1C [Example 21, hydrochloride salt] , what is its reported Ki?
Output: 9.99e-10

Task: Can you handle COCc1cc(-c2nc(-c3cc(F)c(CNCC(=O)O)c(F)c3)no2)ccc1-c1ccccc1C [Example 147, hydrochloride salt] next?
Output: 6.95e-10

----------
- Target: S1P1 (Homo sapiens, UniProt P21453)
- Experiment: Receptor binding assay, [33P]sphingosine 1-phosphate competition, S1P1 membranes, WGA SPA beads
- Condition Details: 384 well-plate; read-out: S1P1 binding Ki (M) (384 well-plate)
Where a name gives a salt, the structure may show the parent alone.
Outcome Measure: log10 Ki (log10 of the value in M)
All values: base-10 log of Ki in M.

Example cases with answers are listed next.
[
  {
    "Compound": "COCc1cc(-c2nc(-c3ccc(CN(C)CC(=O)O)c(F)c3)no2)ccc1-c1cccc(F)c1C [Example 91, hydrochloride salt]",
    "Measurement": -8.95
  },
  {
    "Compound": "COCc1cc(-c2nc(-c3ccc(CN(C)CC(=O)O)c(F)c3)no2)ccc1-c1ccccc1Cl [Example 119, hydrochloride salt]",
    "Measurement": -9.02
  },
  {
    "Compound": "COCc1cc(-c2nc(-c3cc(F)c(F)c(OCCCC(=O)O)c3)no2)ccc1-c1ccccc1C [Example 5]",
    "Measurement": -7.84
  },
  {
    "Compound": "Cc1ccccc1-c1ccc(-c2nc(-c3cccc(CN(C)CC(=O)O)c3)no2)cc1C [Example 132, hydrochloride salt]",
    "Measurement": -8.44
  },
  {
    "Compound": "COCc1cc(-c2nc(-c3cccc(CN(C)CC(=O)O)c3)no2)ccc1-c1ccc(F)cc1C [Example 36, hydrochloride salt]",
    "Measurement": -8.71
  }
]

Task: For COCc1cc(-c2nc(-c3ccc(CN(C)CC(=O)O)c(F)c3)no2)ccc1-c1cccc(F)c1Cl [Example 121, hydrochloride salt] , what is its reported log10 Ki?
Output: -8.81

Task: Can you handle CCc1cc(-c2noc(-c3ccc(-c4ccccc4C)c(COC)c3)n2)ccc1CN(C)CC(=O)O [Example 124] next?
Output: -8.70
